TARGET: T1, human TNFR1 (human, UniProt P19438 30-455)
T1 construct: whole, on cells
T1 sequence (looked up): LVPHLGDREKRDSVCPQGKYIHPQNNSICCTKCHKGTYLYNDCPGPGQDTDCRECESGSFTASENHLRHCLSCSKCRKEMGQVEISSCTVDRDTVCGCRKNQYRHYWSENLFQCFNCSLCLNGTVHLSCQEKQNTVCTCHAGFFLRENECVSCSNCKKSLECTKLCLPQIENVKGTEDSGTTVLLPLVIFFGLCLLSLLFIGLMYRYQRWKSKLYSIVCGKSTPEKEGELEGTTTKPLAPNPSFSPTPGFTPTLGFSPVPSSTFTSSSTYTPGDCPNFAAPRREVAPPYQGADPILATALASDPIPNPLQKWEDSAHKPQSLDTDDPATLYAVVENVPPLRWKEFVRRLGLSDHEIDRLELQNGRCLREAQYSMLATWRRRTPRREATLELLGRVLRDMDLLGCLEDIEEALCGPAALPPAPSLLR
METHOD_SUMMARY: flow cytometry, HEK293 transfectants

{"columns": ["BINDER", "binding result"],
 "data": [
  ["37A6 (antibody, IgG4, V domains shown, also called 4865-1) VH: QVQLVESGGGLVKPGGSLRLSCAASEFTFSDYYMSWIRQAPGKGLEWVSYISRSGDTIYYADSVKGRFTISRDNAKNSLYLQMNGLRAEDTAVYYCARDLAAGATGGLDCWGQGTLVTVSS VL: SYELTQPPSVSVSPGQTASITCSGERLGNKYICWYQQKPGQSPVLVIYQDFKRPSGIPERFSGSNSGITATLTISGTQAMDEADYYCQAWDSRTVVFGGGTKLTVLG", "no binding"],
  ["29H10 (antibody, V domains shown, also called 4877-1) VH: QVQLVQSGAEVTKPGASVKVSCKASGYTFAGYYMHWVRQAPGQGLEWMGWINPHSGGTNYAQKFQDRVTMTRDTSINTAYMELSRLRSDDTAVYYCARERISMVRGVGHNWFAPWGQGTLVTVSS VL: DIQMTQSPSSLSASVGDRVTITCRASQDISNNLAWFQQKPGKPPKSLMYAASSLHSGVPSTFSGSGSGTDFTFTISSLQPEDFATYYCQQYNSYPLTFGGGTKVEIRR", "no binding"],
  ["4G7 (antibody, IgG4, V domains shown, also called 4869-1) VH: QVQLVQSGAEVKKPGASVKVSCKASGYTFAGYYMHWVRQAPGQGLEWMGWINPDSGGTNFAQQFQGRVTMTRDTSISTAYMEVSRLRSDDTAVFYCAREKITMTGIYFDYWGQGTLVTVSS VL: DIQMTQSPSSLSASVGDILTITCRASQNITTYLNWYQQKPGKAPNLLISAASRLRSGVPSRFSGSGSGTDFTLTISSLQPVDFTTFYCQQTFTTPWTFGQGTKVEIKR", "no binding"]
]}
